Provenance of the data: patent US20150246025A1

Endpoint: pIC50. System: DPP-IV enzyme (Homo sapiens). Items follow.
Sequence (P27487 39-766 limits assumed): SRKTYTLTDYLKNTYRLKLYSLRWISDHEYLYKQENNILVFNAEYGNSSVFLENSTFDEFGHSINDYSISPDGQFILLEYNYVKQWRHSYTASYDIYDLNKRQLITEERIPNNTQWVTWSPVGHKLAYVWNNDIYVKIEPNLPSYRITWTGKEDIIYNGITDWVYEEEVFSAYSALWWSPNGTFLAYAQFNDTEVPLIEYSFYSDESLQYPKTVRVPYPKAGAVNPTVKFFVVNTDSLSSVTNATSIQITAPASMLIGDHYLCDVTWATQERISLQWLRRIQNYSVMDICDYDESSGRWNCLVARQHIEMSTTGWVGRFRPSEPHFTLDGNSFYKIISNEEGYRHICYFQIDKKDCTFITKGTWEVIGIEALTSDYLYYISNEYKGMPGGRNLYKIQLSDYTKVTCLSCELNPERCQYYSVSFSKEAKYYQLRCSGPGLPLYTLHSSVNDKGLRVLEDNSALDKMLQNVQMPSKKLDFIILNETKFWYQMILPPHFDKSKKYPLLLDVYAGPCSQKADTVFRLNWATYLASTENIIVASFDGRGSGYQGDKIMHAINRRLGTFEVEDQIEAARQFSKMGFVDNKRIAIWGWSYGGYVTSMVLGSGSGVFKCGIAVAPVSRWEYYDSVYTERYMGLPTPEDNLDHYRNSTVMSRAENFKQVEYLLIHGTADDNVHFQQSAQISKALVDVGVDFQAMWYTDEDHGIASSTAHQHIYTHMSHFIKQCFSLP
pIC50: −log10 of the molar value.

[[record]]
compound_structure = "Cc1ccc(S(=O)(=O)N2CC3=C(CN([C@H]4CO[C@H](c5cc(F)ccc5F)[C@@H](N)C4)C3)C2)cc1"
quantity_measured = "pIC50"
observed_value = "> 7.52"

[[record]]
compound_structure = "CC(=O)N1CC2=C(C1)CN([C@H]1CO[C@H](c3cc(F)ccc3F)[C@@H](N)C1)C2"
quantity_measured = "pIC50"
observed_value = "> 7.00"

[[record]]
compound_structure = "CS(=O)(=O)N1CCC2(CCN([C@H]3CO[C@H](c4cc(F)ccc4F)[C@@H](N)C3)C2)CC1"
quantity_measured = "pIC50"
observed_value = "> 7.00"


Read off the recorded pIC50 for N[C@H]1C[C@@H](N2CC3=C(C2)CN(S(=O)(=O)c2ccc(F)cc2)C3)CO[C@@H]1c1cc(F)ccc1F
> 7.52
